meta.source: paper PMC10817097

# collection of MIC values tested on Enterococcus faecalis CCM 4224
Answers are plain numbers, in µM.

Record MIC for all entries; do not skip any.
1. CC(=O)Oc1ccc(/C=C/C(=O)OCCCCCCCC[P+](c2ccccc2)(c2ccccc2)c2ccccc2)cc1OC(C)=O [CAP 8]
2. CC(=O)Oc1ccc(/C=C/C(=O)OCCCCCCCCCC[P+](c2ccccc2)(c2ccccc2)c2ccccc2)cc1OC(C)=O [CAP 10]
3. CC(=O)Oc1ccc(/C=C/C(=O)OCCCCCC[P+](c2ccccc2)(c2ccccc2)c2ccccc2)cc1OC(C)=O [CAP 6]
4. O=C(O)C=Cc1ccc(O)c(O)c1 [CA, 3-(3,4-dihydroxyphenyl)-2-propenoic acid, reference compound]
5. CC(=O)Oc1ccc(/C=C/C(=O)OCCCCCCCCCCCC[P+](c2ccccc2)(c2ccccc2)c2ccccc2)cc1OC(C)=O [CAP 12]

Completion:
[27, 26, 57, 13900, 25]
